# Tgt: T1, PUF4 RNA-binding domain (Saccharomyces cerevisiae, UniProt P25339 537-888)
# T1 sequence: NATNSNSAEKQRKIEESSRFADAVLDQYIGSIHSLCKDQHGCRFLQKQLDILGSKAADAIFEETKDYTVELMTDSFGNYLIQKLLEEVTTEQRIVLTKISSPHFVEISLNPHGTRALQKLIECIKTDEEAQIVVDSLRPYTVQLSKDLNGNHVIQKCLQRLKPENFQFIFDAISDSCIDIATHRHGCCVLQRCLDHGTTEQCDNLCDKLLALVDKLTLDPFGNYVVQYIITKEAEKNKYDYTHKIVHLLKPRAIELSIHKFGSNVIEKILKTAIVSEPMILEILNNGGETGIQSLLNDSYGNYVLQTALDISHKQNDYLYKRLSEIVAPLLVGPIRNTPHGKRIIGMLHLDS
# Experiment Notes: Mg; RNA-MaP; 20 mM Na-HEPES pH 7.4, 30 mM KOAc, 0.75 mM MgCl2, 0.1% Tween-20, 5% glycerol, 0.1 mg/mL BSA, 2 mM DTT; 25 C; 0.0125-409.6 nM protein
# Experimental Setup: tags: N-His6-TEV cleaved; C-SNAP kept, Cy3B-labelled; label: tethered on chip by stalled RNA polymerase
# log10 Kd values compiled below
Experimental Endpoint: log10 Kd (log10 of the value in nM)

| Binder | Experimental Endpoint | Measured |
| --- | --- | --- |
| Ic_S4_P4E.1_K4.1_C4.1_H4.1_A4.1_[T5C]_[T7A]_F4.1_[T8C]_[A9T]_T4.1 (ssRNA) RNA: UUUGACAACUGAUCGUUCUUUCUUGUACAACUUUCUUUCUCGAUCAGUUGUCUUU | log10 Kd | 1.60 |
| Ic_S4_P3E.1_K3.1_C3.1_H3.1_A3.1_[A6C]_F3.1_[T7G]_[A8G]_T3.1 (ssRNA) RNA: UUUGACAACUGAUCGUUCUUUCUUGUAUCGGUUCUUUCUCGAUCAGUUGUCUUU | log10 Kd | 3.29 |
| Ib_S2_P3E.1_K3.1_C3.1_H3.1_[A4G]_A3.1_[T5C]_F3.1_T3.1 (ssRNA) RNA: UUUGAUUAAUAUGAUAUCGUUCUUUCUUGUGCAUAUUCUUUCUCGAUAUCAUAUUAAUCUUU | log10 Kd | 1.39 |
| UCUCUUUGUAUGUAAGUCUCUU (ssRNA) [Ic_S1_P5E.1_K5.1_C5.1_H5.1_A5.1_[T6G]_[A7T]_F5.1_[T8A]_[T9A]_[A10G]_T5.1] | log10 Kd | 2.65 |
| UCUCUUAUUAUAUUAUUAGCUCUCUU (ssRNA) [Id_ii_S1_P5E.3_K5.2_C5.2_[C-2A]_H5.2_A5.1_F5.1_T5.2_[T11G]_[A12C]] | log10 Kd | 2.32 |
| Id_iii_S4_P3E.6_K3.2_C3.3_H3.2_A3.1_F3.1_T3.2_[A10C] (ssRNA) RNA: UUUGACAACUGAUCGUUCUUUCUUCUUAUAUAUAUCUUCUUUCUCGAUCAGUUGUCUUU | log10 Kd | 2.12 |
| UCUCUUUGUAUCUAUUAUCUCUU (ssRNA) [Ie_S1_P5E.1_K5.1_C5.1_H5.1_A5.1_[+5C]_F5.1_T5.1] | log10 Kd | 1.14 |
| Ib_S4_P4E.1_K4.1_C4.1_H4.1_[T1G]_[A4T]_A4.1_F4.1_T4.1 (ssRNA) RNA: UUUGACAACUGAUCGUUCUUUCUGGUUUAUUAUUCUUUCUCGAUCAGUUGUCUUU | log10 Kd | 3.20 |
| Id_ii_S2_P5E.3_K5.2_C5.2_[C-2T]_H5.2_A5.1_F5.1_T5.2_[A12C] (ssRNA) RNA: UUUGAUUAAUAUGAUAUCGUUCUUUCUUUUAUAUUAUUAUCUUCUUUCUCGAUAUCAUAUUAAUCUUU | log10 Kd | 2.19 |
| Ic_S4_P5E.1_K5.1_C5.1_H5.1_A5.1_[T6C]_[A7T]_F5.1_[T8C]_[A10G]_T5.1 (ssRNA) RNA: UUUGACAACUGAUCGUUCUUUCUUGUAUCUCUGUUCUUUCUCGAUCAGUUGUCUUU | log10 Kd | 1.28 |
| Ib_S2_P3E.1_K3.1_C3.1_H3.1_[A4T]_A3.1_F3.1_[T7A]_T3.1 (ssRNA) RNA: UUUGAUUAAUAUGAUAUCGUUCUUUCUUGUUUAAAUUCUUUCUCGAUAUCAUAUUAAUCUUU | log10 Kd | 3.20 |
| Ib_S4_P3E.1_K3.1_C3.1_H3.1_[A4G]_A3.1_[A6C]_F3.1_T3.1 (ssRNA) RNA: UUUGACAACUGAUCGUUCUUUCUUGUGUCUAUUCUUUCUCGAUCAGUUGUCUUU | log10 Kd | 2.07 |
| ACAAACACUAUAUAUUAUAACAAAC (ssRNA) [Id_ii_S3_P4E.3_K4.2_C4.2_[C-2A]_[T-1C]_H4.2_A4.1_F4.1_T4.2_[G10T]_[T11A]] | log10 Kd | 1.31 |
| Id_iii_S4_P4E.8_K4.4_C4.3_[T-3C]_H4.1_A4.2_F4.1_T4.2 (ssRNA) RNA: UUUGACAACUGAUCGUUCUUUCUCCUUGUAUUUUAGUUUCUUUCUCGAUCAGUUGUCUUU | log10 Kd | -0.20 |
| Id_ii_S2_P5E.3_K5.2_C5.2_[C-2T]_[T-1A]_H5.2_A5.1_F5.1_T5.2_[T11A]_[A12T] (ssRNA) RNA: UUUGAUUAAUAUGAUAUCGUUCUUUCUUAUAUAUUAUUAAUUUCUUUCUCGAUAUCAUAUUAAUCUUU | log10 Kd | 1.32 |
| UCUCUUAUUAUAUAUUAUUUCUCUU (ssRNA) [Id_ii_S1_P4E.3_K4.2_C4.2_[C-2A]_H4.2_A4.1_F4.1_T4.2_[G10T]] | log10 Kd | 0.98 |
| Ib_S2_P4E.1_K4.1_C4.1_H4.1_[A4C]_A4.1_F4.1_[A9C]_T4.1 (ssRNA) RNA: UUUGAUUAAUAUGAUAUCGUUCUUUCUUGUCUAUUCUUCUUUCUCGAUAUCAUAUUAAUCUUU | log10 Kd | 2.80 |
| Ie_S2_P3E.2_K3.1_C3.2_H3.1_A3.1_F3.1_[+8TT]_T3.2 (ssRNA) RNA: UUUGAUUAAUAUGAUAUCGUUCUUUCUCUUGUAUAUAUUUAUUCUUUCUCGAUAUCAUAUUAAUCUUU | log10 Kd | 0.19 |
| Ib_S4_P4E.1_K4.1_C4.1_H4.1_[G2T]_A4.1_[T7A]_F4.1_T4.1 (ssRNA) RNA: UUUGACAACUGAUCGUUCUUUCUUUUAUAAUAUUCUUUCUCGAUCAGUUGUCUUU | log10 Kd | 3.08 |
| Ib_S2_P5E.1_K5.1_C5.1_H5.1_A5.1_[T5C]_[A7C]_F5.1_T5.1 (ssRNA) RNA: UUUGAUUAAUAUGAUAUCGUUCUUUCUUGUACUCUUAUUCUUUCUCGAUAUCAUAUUAAUCUUU | log10 Kd | 0.33 |
| UCUCUUUGUAAUCCCAUCUCUU (ssRNA) [Ic_S1_P5E.1_K5.1_C5.1_H5.1_A5.1_[T5A]_[A7C]_F5.1_[T8C]_[T9C]_T5.1] | log10 Kd | 2.94 |
